- test-name: gradient 5% acetonitrile 3 min, to 50% in 2 min, to 85% in 15 min, held 3 min, 100 µL/min
- experimental-setup: column: Zorbax Extend-C18 2.1 x 50 mm; eluents: water / acetonitrile, 0.1% formic acid
measured-endpoint: RP-LC retention time
State the value with its unit after it.

Entry CNC(=O)C1CCCN(c2nc3ncn(CC(=O)Nc4ccc5c(c4)CCC5)c(=O)c3s2)C1 (stereo not given) — recorded RP-LC retention time = 688 s

Field RP-LC retention time (entry CC(C)(C)c1ccc2c(c1)N(Cc1nc(-c3ccccc3Cl)no1)C(=O)CO2 ) reads 1240 s

For record COc1ccccc1C(=O)N1CCCC1c1c(C)noc1C (stereo not given) the listed RP-LC retention time is 693 s

# RP-LC retention time of O=c1c(=O)n(-c2ccccc2)ccn1Cc1nc(-c2cccc(C(F)(F)F)c2)no1 = 902 s

compound CC1Oc2ccc(-c3csc(NC(=O)CCC4CCCCC4)n3)cc2N(C)C1=O (stereo not given) , RP-LC retention time observed: 1230 s

----------
- test-name: gradient 5% acetonitrile 3 min, to 50% in 2 min, to 85% in 15 min, held 3 min, 100 µL/min
- experimental-setup: column: Zorbax Extend-C18 2.1 x 50 mm; eluents: water / acetonitrile, 0.1% formic acid
measured-endpoint: RP-LC retention time (s)
Report the value in s with no unit label.

For reference, reported RP-LC retention time for COc1ccc(CNS(=O)(=O)c2cc(-c3nc(C(C)(C)C)cs3)cs2)cc1 stands at 1200

Query O=C(NCc1cccs1)C1CC(=O)N(c2ccc3c(c2)CCN3C(=O)C2CC2)C1 (centres undefined) yields RP-LC retention time of 710

# RP-LC retention time of Cc1ccc(Nc2c(-c3ccc(O)cc3)nc3cc(C)ccn23)cc1 = 696

According to the records, this molecule Cc1cccc(NC(=O)CN2C(=O)C3CCCCN3c3ccc(S(=O)(=O)N4CCCCC4)cc32)c1 (centres undefined) displays RP-LC retention time of 1080

Quick note, RP-LC retention time for CCOc1ccc(CNC(=O)c2ccc3c(c2)N(C)C(=O)C2CCCCN32)cc1OC (centres undefined) landed at 774

Entry under test: COc1ccc(OC)c(-c2nc(Nc3ccc(C)c(Cl)c3)sc2CC(=O)O)c1 . Its RP-LC retention time was 972

CC(C)Cn1cc(S(=O)(=O)Nc2ccc(F)cc2F)c2cccnc21 yielded RP-LC retention time of 944

response.value for CCCNC(=O)NCCc1cn(CC)c2ncccc12 (field: RP-LC retention time) = 612

Reported RP-LC retention time of O=C(Cn1c(=O)c2cccn2c2ccc(F)cc21)N1CCc2ccccc2C1 : 911

Item: CC1CCC2(CC1)NC(=O)N(CC(=O)Nc1cccc(F)c1)C2=O (centres undefined) | RP-LC retention time: 816

According to the records, this molecule O=S(=O)(c1ccc(-c2noc(-c3cccc(F)c3)n2)cc1)N1CCCCC1 displays RP-LC retention time of 1280

// recorded RP-LC retention time for O=C(NCC1(c2cccs2)CCOCC1)C(=O)Nc1ccc2c(c1)OCCO2 : 802

// RP-LC retention time lookup, molecule = O=S(=O)(Nc1ccc(F)cc1)c1cccc(-c2nc(-c3ccccc3)no2)c1 , result: 1120

Measured RP-LC retention time of CCN1CCN(c2ccc(-c3nc(-c4cccc(C)c4)no3)cn2)CC1 : 734

Looking up Cc1occc1C(=O)Nc1nc(-c2ccc3ccccc3c2)cs1 , I see its RP-LC retention time listed as 1170

get_value(item= CC(C)c1noc(-c2cc(=O)n(CC(=O)Nc3ccc(F)c(Cl)c3)c3ccccc23)n1 , readout=RP-LC retention time) returns 1100

O=C(c1ccccc1Br)N1CCc2nc(-c3ccc(F)cc3)ncc2C1 yielded RP-LC retention time of 1010

# RP-LC retention time of COc1ccc(C)cc1Nc1nc(C(=O)Nc2cccnc2)cs1 = 637

molecule CCc1ccc2c(c1)cc(S(=O)(=O)c1ccccc1)c(=O)n2CC(=O)NCCCOC , RP-LC retention time observed: 808

----------
- test-name: gradient 5% acetonitrile 3 min, to 50% in 2 min, to 85% in 15 min, held 3 min, 100 µL/min
- experimental-setup: column: Zorbax Extend-C18 2.1 x 50 mm; eluents: water / acetonitrile, 0.1% formic acid
Rule: RP-LC retention time below 800 s gives Met. Equal to or above 800 s gives Not met.

Dear colleague, could you confirm whether RP-LC retention time of CCCN1C(=O)Cc2ccccc2C1C(=O)NCc1ccc2c(c1)OCO2 (centres undefined) falls below 800 s? Thanks. Met

Lab log: compare recorded RP-LC retention time with 800 s; is it strictly lower for CC(NC(=O)CC1Sc2ccc(C(F)(F)F)cc2NC1=O)c1ccccc1 (centres undefined) ? Not met

Input O=C(CN1CC=C(c2cnn(-c3ccccc3)c2)CC1)N1CCN(c2ccccn2)CC1 ; condition: RP-LC retention time strictly below 800 s. Does it hold? Met

RP-LC retention time strictly < 800 s for this compound? Cc1ccc(N2C(=O)CN(CCc3cccs3)[C@H]3CS(=O)(=O)C[C@H]32)cc1C Not met

Is RP-LC retention time of Cc1nc(-c2csc(S(=O)(=O)N3CCC(C(=O)Nc4ccc(Cl)cc4F)CC3)c2)no1 strictly below 800 s? Not met

Regarding Cc1ccc(C(C)NC(=O)C2CCN(c3cnc4nccnc4c3)CC2)c(C)c1 (centres undefined) , kindly confirm whether its RP-LC retention time is beneath 800 s. Met

Quick check: does Cn1cccc1C(=O)N1CC(c2nc(CCOC3CCCC3)no2)C1 have RP-LC retention time under 800 s? Not met

Just wondering, is RP-LC retention time of CCc1ccc(NC(=O)C(C)Oc2cc(C(F)(F)F)c3c(C)nn(C)c3n2)cc1 (centres undefined) below 800 s? Not met

Input Cc1nnsc1C(=O)N1CCC(C(=O)Nc2nccs2)CC1 ; condition: RP-LC retention time strictly below 800 s. Does it hold? Met

Confirm or reject: RP-LC retention time of CCCCN1C(=O)C(C)(C(=O)N2CCN(c3cccc(C)c3C)CC2)Oc2cccnc21 (centres undefined) lies strictly below 800 s Not met

For this compound, is RP-LC retention time lower than 800 s? COc1ccc(-c2c(NC(=O)c3ccco3)n(-c3ccccc3)nc(C)c2=O)cc1 Met

Strictly below 800 s: is that where RP-LC retention time of Cc1cccc(NC(=O)Cn2c(C)nc3c(sc4nc(-c5ccccc5)ccc43)c2=O)c1C sits? Not met

Please indicate whether the reported RP-LC retention time of Cc1ccc(C2=NC3(CCN(C(=O)Nc4cccc(C)c4)CC3)NC2=O)cc1 is strictly below 800 s. Not met

In plain terms, does O=C(Nc1ccc(SCc2ccccc2F)nn1)c1cccs1 come in under 800 s for RP-LC retention time? Not met

Find out if reported RP-LC retention time for CCC(C)NC(=O)c1nccnc1NC(=O)c1ccc(C)cc1 (centres undefined) is less than 800 s Not met

Confirm or reject: RP-LC retention time of COc1cc(C2C(C(=O)N3CCCCC3)=C(C)NC3=C2C(=O)CC(C)(C)C3)cc(OC)c1O (centres undefined) lies strictly below 800 s Not met

Does the reported RP-LC retention time of CC(C)(C)c1csc(-c2csc(S(=O)(=O)N3CCN(c4ccccn4)CC3)c2)n1 stay below 800 s? Not met

Answer whether the compound O=c1ccn(-c2cccc(F)c2)nc1-c1nc(-c2ccc(F)c(Br)c2)no1 has RP-LC retention time strictly less than 800 s Not met

is_below(RP-LC retention time, 800 s) for Cc1ccc(NS(=O)(=O)c2ccc(-c3nnc(C4CCC4)o3)o2)cc1 ? Not met

Criterion: RP-LC retention time strictly below 800 s. Is it met by O=c1c2nc(-c3ccccc3)cn2ccn1-c1ccc(F)c(Cl)c1 ? Not met

Does the reported RP-LC retention time of the following compound sit strictly below 800 s? Cc1cc(C(=O)Nc2ccc3c(c2)OCCO3)no1 Met

RP-LC retention time under 800 s? Item: CCOc1ccccc1NC(=O)Cn1cccc(S(=O)(=O)N2CCC(C)CC2)c1=O Not met

Take the compound CCN(CC)C(=O)c1ccc2c(c1)N(CC(=O)NC1CCCCCC1)C(=O)CO2 and say whether its RP-LC retention time is less than 800 s. Met

Please state whether RP-LC retention time is below 800 s for O=C(O)c1nnn(-c2ccc3c(c2)CCC3)c1-c1ccncc1 Met

Take the compound O=C(Nc1cccnc1N1CCOCC1)C1CC1 and say whether its RP-LC retention time is less than 800 s. Met

Is it true that RP-LC retention time reported for O=c1c2cc(-c3ccc(F)cc3)nn2cnn1Cc1nc(-c2ccc(F)cc2)no1 is less than 800 s? Not met

Consider the compound O=C(Cn1c(=O)cc(-c2nc(C3CC3)no2)c2ccccc21)Nc1ccc(F)cc1 . Is its RP-LC retention time strictly less than 800 s? Met

Threshold test, RP-LC retention time < 800 s: COc1ccc(Cl)cc1S(=O)(=O)N1CCCC(C(N)=O)C1 (centres undefined) Met

# strict comparison: is reported RP-LC retention time < 800 s? input = CCCOc1ccc(-c2nc(-c3ccc(N)cc3)cs2)cc1 Not met

Say whether its RP-LC retention time is strictly beneath 800 s. Entry: C[C@H]1CN(C(=O)c2c(F)cccc2F)C[C@@H]1c1nc(-c2ccccc2)no1 Not met

Bench note: check whether Nc1cccc(-c2ccc(N3CCOCC3)nn2)c1 shows RP-LC retention time below 800 s Met

For COC(=O)c1ccccc1NC(=O)Cn1cccc(-c2nc(-c3ccccc3)no2)c1=O , is the recorded RP-LC retention time below the cut-off of 800 s? Met

API: query returns whether the compound falls strictly under 800 s in RP-LC retention time. Query: CN1CCC(N2CCN(S(=O)(=O)c3ccccc3F)CC2)C1=O (centres undefined) Met

Record COc1ccc(NC(=O)c2nnc(CCCC(=O)NCCc3c[nH]c4ccc(C)cc34)s2)cc1 : is its RP-LC retention time strictly below 800 s? Not met

# TODO verify RP-LC retention time < 800 s strictly for this compound: O=C(c1ccco1)N1CCN(C(=O)c2nnn3c2COC(c2ccccc2)C3)CC1 (centres undefined) Met

Lab note: confirm whether the reported RP-LC retention time for this compound is below 800 s, equality not counting. compound: CCOc1cccc(-c2noc(Cn3nc(-c4ccc(OC)cc4)ccc3=O)n2)c1 Not met
